test system: lung_H1975 tumor cells; test: Cell growth inhibition (CellTiter-Glo), H1975; type: cell-based; settings: Homo sapiens, NCI-H1975, 72 h, lung_H1975, +HGF (2 ng/mL), 3 days
pIC50: −log10 of the molar value.
quantity: pIC50

Exam item: Given the compound C#Cc1cccc(Nc2ncnc3cc(OCCOC)c(OCCOC)cc23)c1 , write its reported pIC50.
Marked response: < 5.00

----------
tested on: NCI-H1993 lung carcinoma cells; assay: Cell growth inhibition (CellTiter-Glo), NCI-H1993; format: cell-based; conditions: Homo sapiens, NCI-H1993, 72 h, lung_H1993, −HGF, 3 days
quantity: pIC50
// scale note: pIC50 = -log10(conc_M); give the bare number

Exam item: Return the recorded pIC50 value; entry: C#Cc1cccc(Nc2ncnc3cc(OCCOC)c(OCCOC)cc23)c1
Marked response: 5.09

----------
system: Detroit 562 head and neck squamous cell carcinoma cells; assay: Cell growth inhibition (CellTiter-Glo), Detroit 562; assay type: cell-based; conditions: Homo sapiens, Detroit 562, 72 h, hn_Detroit562, −HGF, 3 days
quantity: pIC50
pIC50 here is simply -log10 of the concentration when that concentration is written in mol/L.

Exam item: Quote pIC50 reported for CS(=O)(=O)CCNCc1ccc(-c2ccc3ncnc(Nc4ccc(OCc5cccc(F)c5)c(Cl)c4)c3c2)o1 please.
Marked response: 5.40

----------
tested on: HCC1954 breast carcinoma cells; experiment: Cell growth inhibition (CellTiter-Glo), HCC1954; assay type: cell-based; conditions: Homo sapiens, HCC1954, 72 h, breast_HCC1954, +HGF (2 ng/mL), 3 days
quantity: IC50 (µM)
Give just the number in µM; leave the unit off.

Exam item: Provide one value: measured IC50 of CS(=O)(=O)CCNCc1ccc(-c2ccc3ncnc(Nc4ccc(OCc5cccc(F)c5)c(Cl)c4)c3c2)o1
Marked response: 5.27

----------
test system: lung_H1975 tumor cells; assay: Cell growth inhibition (CellTiter-Glo), H1975; type: cell-based; settings: Homo sapiens, NCI-H1975, 72 h, lung_H1975, −HGF, 3 days
quantity: IC50

Exam item: Entry C#Cc1cccc(Nc2ncnc3cc(OCCOC)c(OCCOC)cc23)c1 [Erlotinib] needs its IC50 filled in; supply it.
Marked response: > 10 µM
